Values were extracted from the DeepSol protein solubility set.

Assay: soluble on expression in E. coli; label from the status in PepcDB or PDB records
Readout: soluble on expression in E. coli

Construct Sequence	Readout	Readout Value
GPGSMSMQQDFVHPRQLDDMRAIHAAINSFSGVMTKMMMLMKELGTTLEQVSHSFDALTSLTFTKDEVKQYVHKFGEEIISMKEGIAFCEYNKLVHEDVLHPVEQLKKSLKEAEQAAKAEKSAFEKYKKAKQRVDKQEKAFAEKSKPLDTSKSYPTHVQARNNALVSLQNCKSEFEERFVMLMNDVESVTSTALRRYLELNAGYMTSVVDALTKTDPTVGEAAVFYRQEKQAHRQSAVEQCCLQVNSDLSTAHASQGYRFDPSRMNGCLHDTIIFKRLPSRLRHSTGSRTRSLRVNRPAVE	soluble on expression in E. coli	soluble
MSLKPRACVVVYPGSNCDRDAYHALEINGFEPSYVGLDDKLDDYELIILPGGFSYGDYLRPGAVAAREKIAFEIAKAAERGKLIMGICNGFQILIEMGLLKGALLQNSSGKFICKWVDLIVENNDTPFTNAFEKGEKIRIPIAHGFGRYVKIDDVNVVLRYVKDVNGSDERIAGVLNESGNVFGLMPHPERAVEELIGGEDGKKVFQSILNYLKREGGSHHHHHH	soluble on expression in E. coli	soluble
